Form field: pIC50 (one value per entry).
Target protein (sequence): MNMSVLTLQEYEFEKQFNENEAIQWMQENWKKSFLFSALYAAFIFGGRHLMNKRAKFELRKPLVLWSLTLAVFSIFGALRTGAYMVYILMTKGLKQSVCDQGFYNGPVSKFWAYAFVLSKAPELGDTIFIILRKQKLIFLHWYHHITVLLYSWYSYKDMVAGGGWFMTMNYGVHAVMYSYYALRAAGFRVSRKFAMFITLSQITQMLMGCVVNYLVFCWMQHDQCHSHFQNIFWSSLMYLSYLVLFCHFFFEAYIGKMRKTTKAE
Keep in mind that pIC50 stands for -log10 of concentration in molar terms.

Cc1[nH]n(-c2ccc(C(F)(F)F)cc2)c(=O)c1C1(C(F)(F)F)C(=O)N(c2ccccc2)C2=C1C(=O)CC(C)(C)C2 (centres unmarked); 7.64

Please find the next molecule below.
State the recorded pIC50 for this entry: Cc1[nH]n(-c2ccc(S(C)(=O)=O)cc2)c(=O)c1C1(C(F)(F)F)C(=O)N(c2ccccc2)C2=C1C(=O)CC(C)(C)C2 (centres unmarked)
8.05

----------
# TESTED_TARGET: intracellular LCE in H2.35 cells originating in mouse liver (Mus musculus)
# Construct: endogenous in cells
# Sequence (Q920L5 whole entry): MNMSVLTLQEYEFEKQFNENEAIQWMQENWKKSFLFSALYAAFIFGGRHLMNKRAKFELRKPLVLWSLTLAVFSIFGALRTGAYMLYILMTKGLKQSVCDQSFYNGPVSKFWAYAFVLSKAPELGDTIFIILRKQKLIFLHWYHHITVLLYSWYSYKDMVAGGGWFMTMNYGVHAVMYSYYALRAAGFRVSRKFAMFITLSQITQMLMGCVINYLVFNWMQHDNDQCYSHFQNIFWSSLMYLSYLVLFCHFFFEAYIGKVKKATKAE
# PROTOCOL: Intracellular LCE activity inhibition test
# TEST_CONTEXT: [14C]-palmitoyl CoA, C18/C16 ratio by radio HPLC
ENDPOINT_NAME: IC50 (nM)
# value in nM; strip the unit string

# example entries with known answers
Cc1[nH]n(-c2ccc(OC(C)C)cc2)c(=O)c1C1(C(F)(F)F)C(=O)N(c2ccccc2)C2=C1C(=O)CC(C)(C)C2 (stereo not drawn); 38
Cc1[nH]n(-c2ccc(-c3ccccc3)cc2)c(=O)c1C1(C(F)(F)F)C(=O)N(c2ccccc2)C2=C1C(=O)CC(C)(C)C2 (stereo not drawn); 25

State the recorded IC50 for this entry: Cc1[nH]n(-c2ccc(OC(F)(F)F)cc2)c(=O)c1C1(C(F)(F)F)C(=O)N(c2ccccc2)C2=C1C(=O)CC(C)(C)C2 (stereo not drawn)
0.6

Values from patent US8106086B2
